The reported measurements were obtained from ChEMBL document CHEMBL1150057.

# Test system: Saccharomyces cerevisiae
# method_summary: DNA damaging activity against RS322YK rad52 DNA repair gene deficient Saccharomyces cerevisiae mutant assessed as drug level required to produce 12 mm zone of inhibition after 48 hrs
# Format: functional
measurement_name: IC12 (µg/mL)
Just the number in µg/mL, nothing appended.

>  <molecule>
C=C(CC[C@@H](C)[C@H]1CC[C@H]2[C@@H]3[C@H](O)C=C4C[C@@H](O)CC[C@]4(C)[C@H]3CC[C@]12C)C(C)C

>  <IC12, µg/mL>
8

$$$$

Query: IC12; subject: CC(C)C1(CC[C@@H](C)[C@H]2CC[C@H]3[C@@H]4[C@H](O)C=C5C[C@@H](O)CC[C@]5(C)[C@H]4CC[C@]23C)CO1 (stereo not given in full)
Response: 0.4

Query: What do you get for COC1=C(N)C(=O)c2nc(-c3nc(C(=O)O)c(C)c(-c4ccc(OC)c(OC)c4O)c3N)ccc2C1=O ?
Response: 0.4

Query: What do you get for CC[C@@]1(O)C(=O)OCc2c1cc1n(c2=O)Cc2cc3ccccc3nc2-1 ?
Response: 0.6

Query: What do you get for CC(C)C(O)(CO)CC[C@@H](C)[C@H]1CC[C@H]2[C@@H]3[C@H](O)C=C4C[C@@H](O)CC[C@]4(C)[C@H]3CC[C@]12C (stereo not given in full) ?
Response: 1
